# Test system: Panc-1
# PROTOCOL NOTES: IC50 determination / cytotoxicity in human cell lines (Panc-1)
# Format: cell-based
# ASSAY SETUP: 10.000 cells per well, 96 h, read-out: IC50 [μM] relative to untreated cells
# Method: Anticancer activity of the dinucleotides, (formulated and administered in PBS solutions), was evaluated in vitro in various cancer cell lines, according to a commonly used procedures for assessment of compounds cytotoxicity, as out lined in the following publications: Mender, I., Gryaznov, S., Dikmen, Z. G., Wright, W. E., & Shay, J. W. (2015). Induction of telomere dysfunction mediated by the telomerase substrate precursor 6-thio-2′-deoxyguanosine. […]
READOUT NAME: IC50 (µM)
// units = µM; emit number, no label

Bench note: what IC50 did "Nc1nc2c(ncn2[C@H]2C[C@@H](OP(=O)(O)OC[C@H]3O[C@@H](n4cc(F)c(=O)[nH]c4=O)C[C@H]3O)[C@@H](CO)O2)c(=S)[nH]1" show?
0.25

Bench note: what IC50 did "Nc1nc2c(ncn2[C@H]2C[C@@H](O)[C@@H](COP(=O)(O)O[C@@H]3C[C@H](n4cnc5c(=S)[nH]c(N)nc54)O[C@@H]3CO)O2)c(=S)[nH]1" show?
0.18

Bench note: what IC50 did Nc1nc2c(ncn2[C@H]2C[C@@H](OP(O)(=S)OC[C@H]3O[C@@H](n4cc(F)c(=O)[nH]c4=O)C[C@H]3O)[C@@H](CO)O2)c(=S)[nH]1 (some centres unmarked) show?
5.12

Bench note: what IC50 did "Nc1nc2c(ncn2[C@H]2C[C@@H](O)[C@@H](COP(=O)(O)O[C@@H]3C[C@H](n4cc(F)c(=O)[nH]c4=O)O[C@@H]3CO)O2)c(=S)[nH]1" show?
0.25

---

# System: HEK293
# PROTOCOL NOTES: IC50 determination / cytotoxicity in human cell lines (HEK293)
# Assay type: cell-based
# ASSAY SETUP: HEK293 (Kidney); 10.000 cells per well, 96 well plates, 96 h; read-out: IC50 [μM] relative to untreated cells
# Protocol: Anticancer activity of the dinucleotides, (formulated and administered in PBS solutions), was evaluated in vitro in various cancer cell lines, according to a commonly used procedures for assessment of compounds cytotoxicity, as out lined in the following publications: Mender, I., Gryaznov, S., Dikmen, Z. G., Wright, W. E., & Shay, J. W. (2015). Induction of telomere dysfunction mediated by the telomerase substrate precursor 6-thio-2′-deoxyguanosine. […]
READOUT NAME: IC50 (µM)
// units = µM; emit number, no label

Bench note: what IC50 did "Nc1nc2c(ncn2[C@H]2C[C@@H](OP(=O)(O)OC[C@H]3O[C@@H](n4cc(F)c(=O)[nH]c4=O)C[C@H]3O)[C@@H](CO)O2)c(=S)[nH]1" show?
0.02

Bench note: what IC50 did "Nc1nc2c(ncn2[C@H]2C[C@@H](O)[C@@H](COP(=O)(O)O[C@@H]3C[C@H](n4cnc5c(=S)[nH]c(N)nc54)O[C@@H]3CO)O2)c(=S)[nH]1" show?
0.28

Bench note: what IC50 did Nc1nc2c(ncn2[C@H]2C[C@@H](O)[C@@H](COP(O)(=S)O[C@@H]3C[C@H](n4cc(F)c(=O)[nH]c4=O)O[C@@H]3CO)O2)c(=S)[nH]1 (some centres unmarked) show?
0.61

Bench note: what IC50 did "Nc1nc2c(ncn2[C@H]2C[C@@H](O)[C@@H](COP(=O)(O)O[C@@H]3C[C@H](n4cc(F)c(=O)[nH]c4=O)O[C@@H]3CO)O2)c(=S)[nH]1" show?
0.01

Bench note: what IC50 did Nc1nc2c(ncn2[C@H]2C[C@@H](OP(O)(=S)OC[C@H]3O[C@@H](n4cc(F)c(=O)[nH]c4=O)C[C@H]3O)[C@@H](CO)O2)c(=S)[nH]1 (some centres unmarked) show?
0.63
